Could you please report measured mass density for the items listed next?
Condition context: 313.15 K; 101 kPa; Liquid; Vibrating tube method
Numbers only, in kg/m3.

See these solved cases before continuing.
| Compound | Value units | mass density |
| --- | --- | --- |
| C1CCOCC1 [tetrahydropyran] | kg/m3 | 863.67 |
| CC(C)(C)Cl | kg/m3 | 818.31 |
| CCC(C)Cl (stereo not given) | kg/m3 | 850.13 |
| CCCCCl | kg/m3 | 863.82 |

Okay, now this compound:
mass density reported for this compound "CC(C)CCl" : 853.51

====

Could you please report measured kinematic viscosity for the items listed next?
Condition context: 313.15 K; 101 kPa; Liquid
Answers are plain numbers, in m2/s.

See these solved cases before continuing.
| Compound | kinematic viscosity / m2/s |
| --- | --- |
| C1CCOCC1 [tetrahydropyran] | 7.57e-07 |
| CCC(C)Cl (stereo not given) | 3.96e-07 |
| CCCCCl | 4.21e-07 |
| CC(C)(C)Cl | 4.77e-07 |

Okay, now this compound:
kinematic viscosity reported for this compound "CC(C)CCl" : 4.29e-07

====

Condition context: 298.15 K; 101 kPa; Liquid; Vibrating tube method
Observable: mass density (kg/m3)
One number for each entry, in kg/m3.

See these solved cases before continuing.
| Compound | Readout value |
| --- | --- |
| CCC(C)Cl (stereo not given) | 867.37 |
| CC(C)(C)Cl | 836.45 |

Please look at the items below and tell me mass density for each one, in order.
1. C1CCOCC1 [tetrahydropyran]
2. CC(C)CCl
3. CCCCCl

Found:
878.81
871.13
880.69

====

Could you please report measured kinematic viscosity for the items listed next?
Condition context: 298.15 K; 101 kPa; Liquid
Answers are plain numbers, in m2/s.

| Compound | kinematic viscosity (m2/s) |
| --- | --- |
| CC(C)CCl [1-chloro-2-methylpropane] | 4.93e-07 |

Please look at the items below and tell me kinematic viscosity for each one, in order.
1. C1CCOCC1 [tetrahydropyran]
2. CC(C)(C)Cl [2-chloro-2-methylpropane]
3. CCC(C)Cl (stereo not given) [2-chlorobutane]
4. CCCCCl [1-chlorobutane]

Found:
1: 9.1e-07; 2: 5.68e-07; 3: 4.54e-07; 4: 4.78e-07
